Sourced from patent US20210213145A1

Attribute: log10 of Kd
Target: T1, hPD-L1mIg fusion protein (human, UniProt Q9NZQ7 19-238)
T1 construct: also called hPD-L1 mIg protein; biotin-labeled hPD-L1-mouse Fc fusion protein; not shown: mouse Ig (Fc) part
T1 sequence (Q9NZQ7 19-238): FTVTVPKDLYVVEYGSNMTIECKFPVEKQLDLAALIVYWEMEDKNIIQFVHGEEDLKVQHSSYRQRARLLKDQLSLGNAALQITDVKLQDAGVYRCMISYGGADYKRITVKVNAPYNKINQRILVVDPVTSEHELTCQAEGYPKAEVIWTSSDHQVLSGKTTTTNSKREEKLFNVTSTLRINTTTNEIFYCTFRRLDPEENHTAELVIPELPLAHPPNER
Assay: SPR, Biacore T200; hPD-L1 mIg amine-coupled on CM5 chip, antibody injected at 1-32 nM, full kinetic analysis
Description: The binding affinities and kinetics between the humanized anti-hPD-L1 mAbs and the hPD-L1 protein were assessed with Biacore T200 (GE Healthcare Life Sciences). The hPD-L1 mIg protein was immobilized on the sensor chip CM5 by amine coupling. […] Binding kinetic parameters, including association rate (Kₒₙ), dissociation rate (Koff), and affinity constant (KD) were determined by full kinetic analysis. […]
Endpoint label: log10 of Kd (log10 of the value in nM)

| Binder | log10 of Kd |
| --- | --- |
| anti-PD-L1 HC1 + LC3 (antibody, V domains shown, Humanized antibody, Humanized VH 1 + Humanized VL 3; also called H1+L3; H13) VH: QVQLVQSGAEVKKPGASVKVSCKASGFNIKDTYMYWVRQAPGQGLEWMGRIDPANDNTKYAQKFQGRVTITADTSTSTAYMELSSLRSEDTAVYYCARAKNLLNYFDYWGQGTLVTVSS VL: DIQMTQSPSSLSASVGDRVTITCRASQEISGYLSWYQQKPGKAPKRLIYATSTLDSGVPSRFSGSRSGSDYTLTISSLQPEDFATYYCLQYAIYPLTFGQGTKLEIKR | 0.11 |
| anti-PD-L1 HC3 + LC1 (antibody, V domains shown, Humanized antibody, Humanized VH3 + Humanized VL 1; also called H3+L1; H31) VH: EVQLVQSGAEVKKPGASVKVSCKASGFNIKDTYMYWVRQAPGQGLEWMGRIDPANDNTKYAQKFQGRVTITADTSTNTAYMELSSLRSEDTAVYYCARAKNLLNYFDYWGQGTLVTVSS VL: DIQMTQSPSSLSASVGDRVTITCRASQEISGYLSWYQQKPGKAPKRLIYATSTLDSGVPSRFSGSGSGTDFTLTISSLQPEDFATYYCLQYAIYPLTFGQGTKLEIKR | 0.07 |
| anti-PD-L1 HC2 + LC1 (antibody, V domains shown, Humanized antibody, Humanized VH 2 + Humanized VL 1; also called H2+L1; H21) VH: QVQLVQSGAEVKKPGASVKVSCKASGFNIKDTYMYWVRQAPGQGLEWIGRIDPANDNTKYAPKFQGRVTITADTSTNTAYMELSSLRSEDTAVYYCARAKNLLNYFDYWGQGTLVTVSS VL: DIQMTQSPSSLSASVGDRVTITCRASQEISGYLSWYQQKPGKAPKRLIYATSTLDSGVPSRFSGSGSGTDFTLTISSLQPEDFATYYCLQYAIYPLTFGQGTKLEIKR | 0.34 |
| anti-PD-L1 HC3 + LC2 (antibody, V domains shown, Humanized antibody, Humanized VH3 + Humanized VL 2; also called H3+L2; H32) VH: EVQLVQSGAEVKKPGASVKVSCKASGFNIKDTYMYWVRQAPGQGLEWMGRIDPANDNTKYAQKFQGRVTITADTSTNTAYMELSSLRSEDTAVYYCARAKNLLNYFDYWGQGTLVTVSS VL: DIQMTQSPSSLSASVGDRVTITCRASQEISGYLSWLQQKPGKAPKRLIYATSTLQSGVPSRFSGSRSGTDYTLTISSLQPEDFATYYCLQYAIYPLTFGQGTKLEIKR | -0.18 |
| anti-PD-L1 parental (mouse-human chimeric mAb) (antibody, human IgG1, kappa, V domains shown, its variable domains are the same; also called parental chimeric antibody; parental (PA200)) VH: EVQLQQSGAELVKPGASVKLSCTASGFNIKDTYMYWVKQRPEQGLECIGRIDPANDNTKYDPKFQGKATITADTSSNTAYVQLASLTSEDTAVYYCARAKNLLNYFDYWGQGTTLTVSS VL: DIQMTQSPSSLSASLGERVTLSCRASQEISGYLSWLQQKPDGTIKRLIYATSTLDSGVPKRFSGSRSGSDYSLTISSLESEDFADYYCLQYAIYPLTFGAGTKLELKR | -0.89 |
